Ref: patent US20230025129A1

Biological target: T1, human matriptase-2 ECD protein his tag (human, UniProt Q8IU80 78-811)
T1 construct: also called human MTP-2 ECD; huMTP-2
T1 sequence: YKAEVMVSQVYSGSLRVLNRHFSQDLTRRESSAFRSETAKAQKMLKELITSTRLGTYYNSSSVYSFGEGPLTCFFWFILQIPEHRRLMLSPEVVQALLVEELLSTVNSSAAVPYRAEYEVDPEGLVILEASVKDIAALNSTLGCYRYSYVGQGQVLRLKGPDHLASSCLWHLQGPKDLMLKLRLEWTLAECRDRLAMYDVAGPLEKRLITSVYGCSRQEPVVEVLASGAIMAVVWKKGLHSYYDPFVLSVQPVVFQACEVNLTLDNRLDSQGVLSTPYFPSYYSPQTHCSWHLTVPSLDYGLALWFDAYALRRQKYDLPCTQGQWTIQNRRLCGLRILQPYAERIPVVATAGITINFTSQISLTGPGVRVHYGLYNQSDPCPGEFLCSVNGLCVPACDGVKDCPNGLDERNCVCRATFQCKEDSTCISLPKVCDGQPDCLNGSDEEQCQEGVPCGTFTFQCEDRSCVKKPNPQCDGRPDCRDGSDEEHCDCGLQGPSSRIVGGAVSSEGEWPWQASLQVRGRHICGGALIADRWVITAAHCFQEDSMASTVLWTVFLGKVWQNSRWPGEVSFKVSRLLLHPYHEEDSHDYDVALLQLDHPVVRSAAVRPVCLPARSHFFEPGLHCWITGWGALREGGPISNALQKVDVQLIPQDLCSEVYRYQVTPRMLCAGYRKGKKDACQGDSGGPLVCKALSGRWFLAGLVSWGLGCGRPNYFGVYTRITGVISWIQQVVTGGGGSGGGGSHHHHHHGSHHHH
Assay: SPR (Biacore 8K), huIgG4PE captured on anti-human Fc, MTP-2 ECD as analyte, 1:1 fit
Hi there, I'd appreciate the recorded koff for every entry that follows.
Only the number, expressed in s⁻¹, is required.

Tell me measured koff for NORI-013 (antibody, human IgG4 S228P, lambda, V domains shown, human IgG4PE, lambda) VH: EVQLVESGGGLIQAGRSLRLSCAASGFTFDEHVIYWVRQIPGKGLEWISSISWKSDIIAYADSVKGRFTISRDNAKNALYLQMNSLRAEDTALYYCAREKDGDFYYYYFAMDVWGQGTTVTVSS VL: QSALTQPPSASGSPGQSVTLSCTGTSSDVGYYNYVSWYLQHPGKAPKLMIYEVSKRPSGVPDRFSGSKSANTASLTVSGLQAEDEADYYCSSYAGSNKVVFGGGTKVTVLG please.
5.78e-05

Tell me measured koff for NORI-009 (antibody, human IgG4 S228P, lambda, V domains shown, human IgG4PE, lambda) VH: EVQLVESGGGLVQPGRSLRLSCAASGFTFNDHVIYWVRQVPGKGLEWVSTISWNSDTIAYADSVKGRFTISRDNAKNALYLQMNSLRTEDTALYYCAREKDGDFYYDYFAMDVWGQGTTVTVSS VL: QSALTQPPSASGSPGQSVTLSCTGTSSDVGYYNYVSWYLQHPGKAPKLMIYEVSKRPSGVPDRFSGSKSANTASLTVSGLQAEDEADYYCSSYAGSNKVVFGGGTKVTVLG please.
0.00112

Tell me measured koff for NORI-012 (antibody, human IgG4 S228P, lambda, V domains shown, human IgG4PE, lambda) VH: EVQLVESGGGLVQPGRSLRLSCAASGFTFDDHVMYWVRQAPGKGLEWVSGISWNSDTIGYADAVKGRFTISRDNAKNVLYLHMNSLRPEDTALYYCAREKDGDFYYNYFVMDVWGQGTTVTVSP VL: QSALTQPPSASGSPGQSVTISCTGTSSDVGFYNFVSWYQQHPDKAPKVMIYEVSKRPSGVPDRFSGSKSGNTASLTVSGLQAEDEADYYCSSYAGSNKVVFGGGTKLTVLG please.
0.000427

Tell me measured koff for NORI-014 (antibody, human IgG4 S228P, lambda, V domains shown, human IgG4PE, lambda) VH: EVQLVESGGGLIQAGRSLRLSCAASGFTFDEHVMYWVRQIPGKGLEWISSITWKSDIIAYADSVKGRFTISRDNAKNALYLQMNSLRAEDTALYYCAREKDGDFYYYYFAMDVWGQGTTVTVSS VL: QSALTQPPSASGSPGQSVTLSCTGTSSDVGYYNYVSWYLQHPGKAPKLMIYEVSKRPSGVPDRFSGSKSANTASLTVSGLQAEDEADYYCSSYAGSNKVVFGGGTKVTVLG please.
4.6e-05
